- System: A549 cells
- assay-method-text: Apoptotic activity by MTT analysis, A549 cells
- Format: cell-based
- test-conditions: Homo sapiens, A549, 12 h, 15 μM of the compound, mean±standard deviation, read-out: Apoptosis (%) A549 cells
The threshold is 60%. Values of cytotoxicity at 15 µM beneath it are tagged 1 (yes); values meeting or exceeding it are tagged 0 (no).

Some solved cases for reference:
Does the reported cytotoxicity at 15 µM of the following compound sit strictly below 60%? COc1ccc(-c2nc(-c3cc(C(F)(F)F)cc(C(F)(F)F)c3)n(Cc3ccc(C(=O)NCCCCCCN)cc3)c2-c2ccc(OC)cc2)cc1 [Example 191]
0 (no)

Does the reported cytotoxicity at 15 µM of the following compound sit strictly below 60%? CN(C)c1ccc(-c2nc(-c3cccc(C(F)(F)F)c3)n(Cc3ccc(C(=O)NCCOCCOCCN)cc3)c2-c2ccc(N(C)C)cc2)cc1 [Example 27]
0 (no)

Does the reported cytotoxicity at 15 µM of the following compound sit strictly below 60%? COc1ccc(-c2nc(-c3cc(C(F)(F)F)cc(C(F)(F)F)c3)n(Cc3ccc(C(=O)NCCCCCCCCCCCN)cc3)c2-c2ccc(OC)cc2)cc1 [Example 199]
0 (no)

Does the reported cytotoxicity at 15 µM of the following compound sit strictly below 60%? COc1ccc(-c2nc(-c3cc(C(F)(F)F)cc(C(F)(F)F)c3)n(Cc3ccc(C(=O)NCCCOCCOCCCN)cc3)c2-c2ccc(OC)cc2)cc1 [Example 198]
0 (no)

Further cases:
Does the reported cytotoxicity at 15 µM of the following compound sit strictly below 60%? COC(=O)c1ccc(Cn2c(-c3cc(C(F)(F)F)cc(C(F)(F)F)c3)nc(-c3ccc(OC)cc3)c2-c2ccc(OC)cc2)cc1 [Example 120]
1 (yes)

Does the reported cytotoxicity at 15 µM of the following compound sit strictly below 60%? COCCOC(=O)c1ccc(Cn2c(-c3cc(C(F)(F)F)cc(C(F)(F)F)c3)nc(-c3ccc(OC)cc3)c2-c2ccc(OC)cc2)cc1 [Example 122]
1 (yes)

Does the reported cytotoxicity at 15 µM of the following compound sit strictly below 60%? COCCNC(=O)c1ccc(Cn2c(-c3cc(C(F)(F)F)cc(C(F)(F)F)c3)nc(-c3ccc(OC)cc3)c2-c2ccc(OC)cc2)cc1 [Example 121]
1 (yes)

Does the reported cytotoxicity at 15 µM of the following compound sit strictly below 60%? COc1ccc(-c2nc(-c3cc(C(F)(F)F)cc(C(F)(F)F)c3)n(CCOCCOCCN)c2-c2ccc(OC)cc2)cc1 [Example 187]
1 (yes)

Does the reported cytotoxicity at 15 µM of the following compound sit strictly below 60%? CNC(=O)c1ccc(Cn2c(-c3cc(C(F)(F)F)cc(C(F)(F)F)c3)nc(-c3ccc(OC)cc3)c2-c2ccc(OC)cc2)cc1 [Example 119]
1 (yes)

Does the reported cytotoxicity at 15 µM of the following compound sit strictly below 60%? COc1ccc(-c2nc(-c3cc(C)cc(C)c3)n(Cc3ccc(C(=O)NCCOCCOCCN)cc3)c2-c2ccc(OC)cc2)cc1 [Example 45]
1 (yes)

Does the reported cytotoxicity at 15 µM of the following compound sit strictly below 60%? COc1ccc(-c2nc(-c3cc(O)cc(O)c3)n(Cc3ccc(C(N)=O)cc3)c2-c2ccc(OC)cc2)cc1 [Example 107]
1 (yes)

Cited source: patent US20160297768A1
